- Test Target: GTPase HRas (Homo sapiens)
- Assay Comment: Ras wt fluorescent GTP loading blockade – biochemical, wildtype, multiplex bead flow cytometry, dose response (AID 1335)
- Assay Context: bead-based flow cytometry, Bodipy-GTP binding to GST-Ras; at 100 µM (top of the series) unless noted
What GTP binding, percent of control was measured for each of the following?
Numbers only, in %.

Worked set:
O=C(Cn1c(-c2cscn2)nc2ccccc21)Nc1cc(F)ccc1F	75.9
O=C(O)c1cc(Sc2ccc(F)cc2)nc2ccccc12	86
CN(C)c1ccc([C@@H]2[C@@H]([N+](=O)[O-])[C@H]3C=Cc4ccccc4N3[C@H]2C(=O)c2ccc(Cl)cc2)cc1	60.6
COc1cc(/C=N/NC(N)=O)cc([N+](=O)[O-])c1O	78.6
COc1ccc(OCc2ccccc2Br)c(C(=O)O)c1	217

Batch lookup, GTP binding, percent of control per entry.
1. COc1cc(/C=N/Nc2nc(C)nc3c2cnn3-c2ccccc2)ccc1O
2. CC(C)(C)c1ccc(OCCSc2nc3ccccc3n2CC(=O)O)cc1
3. Cc1nnc2ccc(-c3cccc(NC(=O)c4ccc(Br)o4)c3)nn12
4. Cc1ccc(COc2ccsc2C(=O)O)cc1

[128, 87.1, 81.8, 115]

Batch lookup, GTP binding, percent of control per entry.
1. COc1ccc(-n2c(NC(=O)c3ccc(Br)o3)c(C#N)c3nc4ccccc4nc32)cc1
2. CCN1C(=O)C(CC(=O)Nc2ccc(F)cc2)N(CCc2ccc(OC)cc2)C1=S (stereo unspecified)

[72.7, 78.6]
